FYI, the data here is from patent US20250296971A1.

# experimental.system: human Gastric Inhibitory Peptide Receptor (human) (UniProt P48546)
# Sequence (P48546 22-466 limits assumed): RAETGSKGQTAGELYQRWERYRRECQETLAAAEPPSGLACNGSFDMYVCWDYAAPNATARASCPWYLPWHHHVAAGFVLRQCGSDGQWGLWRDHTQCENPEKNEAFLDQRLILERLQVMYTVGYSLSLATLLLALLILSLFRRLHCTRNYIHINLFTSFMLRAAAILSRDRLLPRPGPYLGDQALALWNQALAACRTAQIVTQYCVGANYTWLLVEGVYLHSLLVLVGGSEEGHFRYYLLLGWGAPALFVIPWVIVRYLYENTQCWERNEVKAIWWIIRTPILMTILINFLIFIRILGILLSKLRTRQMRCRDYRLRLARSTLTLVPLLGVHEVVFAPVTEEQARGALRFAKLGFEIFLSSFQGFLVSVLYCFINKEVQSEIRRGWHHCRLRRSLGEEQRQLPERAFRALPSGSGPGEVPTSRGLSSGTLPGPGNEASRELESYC
# assay.overview: FACS competition with GIP-057 on CHO-K1-hGIPR cells; pIC50 category A: >8.0
*1 amine or outer side, *2 acyl side, *3 side chain or, on linkers, in order; H or OH if unused. Bridges are numbered along the chain shown (N, C = ends). Primed or numbered codes have the meaning given here. Side-chain parts run from the residue outwards. [ ]: non-standard residue; d: D form. The star is where a group is joined. NH(1-deoxy-D-glucityl) = OC[C@@H](O)[C@@H](O)[C@H](O)[C@@H](O)CN*; dE(AGLU) = D-glutamic acid bearing 1-amino-1-deoxy-D-glucitol; Ttds(4) = 1,13-diamino-4,7,10-trioxatridecan-succinamic acid; Pro(trans-4-NH2) = O=C([C@@H]1C[C@@H](N[*:3])CN1[*:1])[*:2]; DOTA = O=C(O)CN1CCN(CC(=O)O)CCN(CC(=O)*)CCN(CC(=O)O)CC1; 2Lut = 2,6-lutidylidene bridge between two thiols; N(CH2CH2CO)Gly = O=C(CN(CCC(=O)[*:3])[*:1])[*:2]; Trp(5-Cl) = N[C@@H](Cc1c[nH]c2ccc(Cl)cc12)C(=O)O; Pyridine(2,6-diCH2) = c1cc(C[*:1])nc(C[*:2])c1; Trp(5-F) = N[C@@H](Cc1c[nH]c2ccc(F)cc12)C(=O)O; APAc = 4-amino-1-carboxymethylpiperidine; 1Nal = N[C@@H](Cc1cccc2ccccc12)C(=O)O; mXylylene = c1cc(C[*:1])cc(C[*:2])c1; Glutaryl = O=C(CCCC(=O)[*:2])[*:1]; AGLU = 1-amino-1-deoxy-D-glucitol; Hyp = O=C(O)[C@@H]1C[C@@H](O)CN1; dGlu(AGLU) = not defined here; hSer = N[C@@H](CCO)C(=O)O; Api = NC1(C(=O)O)CCNCC1; Thp = NC1(C(=O)O)CCOCC1; AEEA = NCCOCCOCC(=O)O; Aib = CC(C)(N)C(=O)O
Items are presented alongside their recorded pIC50.

binder	pIC50
Ac-[hSer]W[Trp(5-Cl)][Hyp]E[dL]C[Thp]LIC-NH2 (linker 7-11 via Pyridine(2,6-diCH2); SMILES CC[C@H](C)[C@@H]1NC(=O)[C@H](CC(C)C)NC(=O)C2(CCOCC2)NC(=O)[C@@H](NC(=O)[C@@H](CC(C)C)NC(=O)[C@H](CCC(=O)O)NC(=O)[C@@H]2C[C@@H](O)CN2C(=O)[C@H](Cc2c[nH]c3ccc(Cl)cc23)NC(=O)[C@H](Cc2c[nH]c3ccccc23)NC(=O)[C@H](CCO)NC(C)=O)CSCc2cccc(n2)CSC[C@@H](C(N)=O)NC1=O) [Ac-Hse-Trp-5Clw-Hyp-Glu-leu-[Cys(2Lut)-Thp-Leu-Ile-Cys]-NH2]	> 8 pic50
{AGLU-Glutaryl}-DW[Trp(5-Cl)][Hyp]E[dL]C[Thp]LIC-NH2 (linker 7-11 via Pyridine(2,6-diCH2)) [AGLU-Glutar-Asp-Trp-5Clw-Hyp-Glu-leu-[Cys(2Lut)-Thp-Leu-Ile-Cys]-NH2]	> 8 pic50
{AGLU-Glutaryl}-DW[Trp(5-Cl)][Hyp]E[dL]C[Thp]LIC-{APAc-dE(AGLU)-K(DOTA)-NH2} (linker 7-11 via Pyridine(2,6-diCH2)) [AGLU-Glutar-Asp-Trp-5Clw-Hyp-Glu-leu-[Cys(2Lut)-Thp-Leu-Ile-Cys]-APAc-glu(AGLU)-Lys(DOTA)-NH2]	> 8 pic50
Ac-D[Trp(5-F)][1Nal]PE[dL]C[Aib]LIC-{Ttds(4)-K(DOTA)-NH2} (linker 7-11 via mXylylene) [Ac-Asp-5Fw-1Ni-Pro-Glu-leu-[Cys(3MeBn)-Aib-Leu-Ile-Cys]-Ttds-Lys(DOTA)-NH2]	> 8 pic50
{DOTA-dGlu(AGLU)-AEEA}-DW[Trp(5-Cl)][Pro(trans-4-NH2)]E[dL]C[Api]([Glutaryl-NH(1-deoxy-D-glucityl)])LIC-{APAc-dGlu(AGLU)-NH2} (linker 7-11 via 2Lut; reading uncertain)	> 8 pic50

Q) Which pIC50 reading was recorded for the binder Ac-DW[Trp(5-Cl)][N(CH2CH2CO)Gly](NH(1-deoxy-D-glucityl))E[dL]C[Thp]LIC-NH2 (linker 7-11 via Pyridine(2,6-diCH2)) [Ac-Asp-Trp-5Clw-Nglu(AGLU)-Glu-leu-[Cys(2Lut)-Thp-Leu-Ile-Cys]-NH2] ?
A) > 8 pic50

Q) I am curious: what pIC50 value has been reported for Ac-NW[Trp(5-Cl)][Hyp]E[dL]C[Thp]LIC-NH2 (linker 7-11 via Pyridine(2,6-diCH2); SMILES CC[C@H](C)[C@@H]1NC(=O)[C@H](CC(C)C)NC(=O)C2(CCOCC2)NC(=O)[C@@H](NC(=O)[C@@H](CC(C)C)NC(=O)[C@H](CCC(=O)O)NC(=O)[C@@H]2C[C@@H](O)CN2C(=O)[C@H](Cc2c[nH]c3ccc(Cl)cc23)NC(=O)[C@H](Cc2c[nH]c3ccccc23)NC(=O)[C@H](CC(N)=O)NC(C)=O)CSCc2cccc(n2)CSC[C@@H](C(N)=O)NC1=O) [Ac-Asn-Trp-5Clw-Hyp-Glu-leu-[Cys(2Lut)-Thp-Leu-Ile-Cys]-NH2] ?
A) > 8 pic50
